# System Name: c-Myc/Max (Homo sapiens, UniProt P01106+P61244)
# Sequence (P01106 whole entry): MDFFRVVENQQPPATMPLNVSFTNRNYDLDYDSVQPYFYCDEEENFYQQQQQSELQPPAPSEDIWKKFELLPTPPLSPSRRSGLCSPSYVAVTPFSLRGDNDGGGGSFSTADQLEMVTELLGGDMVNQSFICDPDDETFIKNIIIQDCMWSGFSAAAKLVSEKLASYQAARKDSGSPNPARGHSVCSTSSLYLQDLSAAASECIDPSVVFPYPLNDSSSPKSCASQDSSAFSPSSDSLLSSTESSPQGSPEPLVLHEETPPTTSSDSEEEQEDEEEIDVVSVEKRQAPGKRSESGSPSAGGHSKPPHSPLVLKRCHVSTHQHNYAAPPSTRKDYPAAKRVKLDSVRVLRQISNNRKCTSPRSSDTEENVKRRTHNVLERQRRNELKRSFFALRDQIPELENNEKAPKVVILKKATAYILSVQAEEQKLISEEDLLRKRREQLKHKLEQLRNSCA
# Sequence (P61244 whole entry): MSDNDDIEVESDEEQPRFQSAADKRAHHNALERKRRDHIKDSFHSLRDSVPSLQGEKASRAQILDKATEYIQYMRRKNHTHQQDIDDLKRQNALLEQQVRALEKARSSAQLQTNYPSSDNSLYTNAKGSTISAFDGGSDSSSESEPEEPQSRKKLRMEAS
# Measurement Protocol: Disruption of human recombinant c-Myc-Max/DNA (unknown origin) binding assessed as complex level by electrophoretic mobility shift assay relative to control
pIC50: −log10 of the molar value.
Quantity Kind: pIC50

Molecule	System Name	pIC50
CC(C)COc1cc(C(=O)O)ccc1NC(=O)c1ccc([N+](=O)[O-])c(OCC(C)C)c1	c-Myc/Max (Homo sapiens, UniProt P01106+P61244)	4.69

A: CC(C)COc1nc(C(=O)O)ccc1NC(=O)c1ccc([N+](=O)[O-])c(OCC(C)C)n1
B: CC(C)COc1cc(C(=O)O)ccc1NC(=O)c1ccc([N+](=O)[O-])c(OCc2cccc3ccccc23)c1
C: CC(C)COc1cc(C(=O)O)ccc1NC(=O)c1ccc([N+](=O)[O-])c(OCC(C)C)n1
Order the 3 compounds from highest to lowest pIC50. Hello, could you send the labels back in the order asked? Thank you. B, A, C
(B: 4.94, A: 4.62, C: 4.36)

###

# System Name: c-Myc/Max (Homo sapiens, UniProt P01106+P61244)
# Measurement Protocol: Disruption of human recombinant c-Myc-Max(S)/DNA (unknown origin) binding assessed as complex level at 100 uM by electrophoretic mobility shift assay relative to control
# Format: protein-complex assay
Quantity Kind: Activity (%)

Molecule	System Name	Activity, %
CC(C)COc1cc(C(=O)O)ccc1NC(=O)c1ccc([N+](=O)[O-])cc1	c-Myc/Max (Homo sapiens, UniProt P01106+P61244)	90
CC(C)COc1cc(C(=O)Nc2ccc(C(=O)O)cc2OCC(C)C)ccc1NC(=O)COCC(=O)O	c-Myc/Max (Homo sapiens, UniProt P01106+P61244)	89
COC(=O)c1ccc(NC(=O)c2ccc([N+](=O)[O-])c(OC3Cc4ccccc4C3)c2)c(OCC(C)C)c1	c-Myc/Max (Homo sapiens, UniProt P01106+P61244)	90

###

# System Name: c-Myc/Max (Homo sapiens, UniProt P01106+P61244)
# Measurement Protocol: Disruption of human recombinant c-Myc-Max(S)/DNA (unknown origin) binding assessed as complex level at 100 uM by electrophoretic mobility shift assay relative to control
# Format: protein-complex assay
Quantity Kind: Activity (%)

The cases that follow already have their Activity on record.
Molecule	System Name	Activity, %
COC(=O)c1ccc(NC(=O)c2ccc([N+](=O)[O-])c(OC(C)C)c2)c(OCC(C)C)c1	c-Myc/Max (Homo sapiens, UniProt P01106+P61244)	70
COC(=O)c1ccc(NC(=O)c2ccc([N+](=O)[O-])c(OC3Cc4ccccc4C3)c2)c(OC2Cc3ccccc3C2)c1	c-Myc/Max (Homo sapiens, UniProt P01106+P61244)	100
CC(C)COc1cc(NC(=O)c2ccc([N+](=O)[O-])c(OCC(C)C)c2)ccc1C(=O)O	c-Myc/Max (Homo sapiens, UniProt P01106+P61244)	80
CC(C)COc1cc(C(=O)Nc2ccc(C(=O)O)cc2OCc2ccncc2)ccc1[N+](=O)[O-]	c-Myc/Max (Homo sapiens, UniProt P01106+P61244)	87
CC(C)COc1cc(C(=O)Nc2ccc(C(=O)O)cc2OCC(C)C)ccc1NC(=O)C(=O)O	c-Myc/Max (Homo sapiens, UniProt P01106+P61244)	99
COC(=O)c1ccc(NC(=O)c2ccc([N+](=O)[O-])c(OC(C)C)c2)c(OCc2ccccc2)c1	c-Myc/Max (Homo sapiens, UniProt P01106+P61244)	73

A: COC(=O)c1ccc(NC(=O)c2ccc([N+](=O)[O-])c(OC3Cc4ccccc4C3)c2)c(OCc2ccccc2)c1
B: CC(C)COc1cc(C(=O)O)ccc1NC(=O)c1ccc([N+](=O)[O-])c(OCC(C)C)c1
Which value of Activity is greater, the one for A or the one for B ? Please indicate the selected item by its label. A
